Test system: DU145
test_description: Euclidean distance of Cell Painting phenotypic profile (signed KS, 77 features) to DMSO centroid (dimensionless distance); 5 or 10 uM (library dependent); higher = stronger phenotypic change vs DMSO (phenoactivity)
condition_context: 48 h
Please go through the items and note down their Euclidean distance.
Give bare numbers.

Use the examples below as a reference point.
CCc1nc(C(N)=O)c(Nc2ccc(N3CCC(N4CCN(C)CC4)CC3)c(OC)c2)nc1NC1CCOCC1 : 3.49
c1cc(CN2CCCNCCNCCCNCC2)ccc1CN1CCCNCCNCCCNCC1 [Plerixafor 8HCl (AMD3100 8HCl)] : 0.691
CC1(C)C2CCC1(C)C(O)C2 (stereo not given) : 1.16

Respectfully, I request Euclidean distance for each entry included below.
1. COc1ccc([C@@H]2CC(=O)c3c(O)cc(O)cc3O2)cc1O
2. COc1ccc(-c2coc3cc(O)ccc3c2=O)cc1

Reply:
1: 1.21; 2: 0.599

====

System: DU145
test_description: Euclidean distance of Cell Painting phenotypic profile (signed KS, 77 features) to DMSO centroid (dimensionless distance); 5 or 10 uM (library dependent); higher = stronger phenotypic change vs DMSO (phenoactivity)
condition_context: 48 h
Where a name gives a salt, the structure may show the parent alone.
Please go through the items and note down their Euclidean distance.
One number for each entry.

C[C@H](N)[C@H](O)c1cccc(O)c1 [Metaraminol Bitartrate] : 0.8

Respectfully, I request Euclidean distance for each entry included below.
1. Oc1ccc(C2CNCCc3c2cc(O)c(O)c3Cl)cc1 (stereo not given) [Fenoldopam mesylate]
2. CCCCS(=O)(=O)N[C@@H](Cc1ccc(OCCCCC2CCNCC2)cc1)C(=O)O [Tirofiban Hydrochloride]
3. CC(C)C[C@H](NC(=O)[C@H](Cc1ccccc1)NC(=O)c1cnccn1)B(O)O

Reply:
[0.768, 1.77, 6.56]

Respectfully, I request Euclidean distance for each entry included below.
1. O=c1ccc2ccccc2o1
2. C[C@H](CCC(=O)NCCS(=O)(=O)O)[C@H]1CC[C@H]2[C@@H]3[C@@H](O)C[C@@H]4C[C@H](O)CC[C@]4(C)[C@H]3CC[C@]12C
3. O=C(OC[C@H]1O[C@@H](OC(=O)c2cc(O)c(O)c(OC(=O)c3cc(O)c(O)c(O)c3)c2)[C@H](OC(=O)c2cc(O)c(O)c(OC(=O)c3cc(O)c(O)c(O)c3)c2)[C@@H](OC(=O)c2cc(O)c(O)c(OC(=O)c3cc(O)c(O)c(O)c3)c2)[C@@H]1OC(=O)c1cc(O)c(O)c(OC(=O)c2cc(O)c(O)c(O)c2)c1)c1cc(O)c(O)c(OC(=O)c2cc(O)c(O)c(O)c2)c1
4. Cn1cc(C2=C(c3cn(CCCSC(=N)N)c4ccccc34)C(=O)NC2=O)c2ccccc21 [Ro 31-8220 Mesylate]
5. NC(=O)c1cnccn1 [Pyrazinamide]
6. CCC/C=C1\OC(=O)C2=C1CCC=C2 [Ligustilide]
7. COc1cc(C2Oc3cc([C@H]4Oc5cc(O)cc(O)c5C(=O)[C@@H]4O)ccc3OC2CO)ccc1O (stereo not given in full)

Reply:
1: 1.08; 2: 0.772; 3: 1.47; 4: 2.58; 5: 0.786; 6: 0.83; 7: 0.646

Respectfully, I request Euclidean distance for each entry included below.
1. CN[C@H]1C(=O)N[C@@H]2Cc3ccc(cc3)Oc3cc4cc(c3O[C@@H]3O[C@H](C(=O)O)[C@@H](O)[C@H](O)[C@H]3NC(=O)CCCCCCCCC(C)C)Oc3ccc(cc3Cl)[C@@H](O)[C@@H]3NC(=O)[C@H](NC(=O)[C@@H]4NC(=O)[C@@H](NC2=O)c2cc(cc(O)c2Cl)Oc2cc1ccc2O)c1ccc(O)c(c1)-c1c(O[C@H]2O[C@H](CO)[C@@H](O)[C@H](O)[C@@H]2O)cc(O)cc1[C@@H](C(=O)NCCCN(C)C)NC3=O
2. COc1c(C)c2c(c(O)c1C/C=C(\C)CCC(=O)O)C(=O)OC2

Reply:
1.15
1.88
